Readout Kind: melting point

>>> reading("O=C1C=CC(O)(CCN2C(=O)C=CC2=O)C=C1 [Compound 13b]")
"151 to 152 °C"
>>> reading("O=C1C=CC(O)(CCN2C(=O)C3CC=CCC3C2=O)C=C1 (stereo not shown) [Compound 13j]")
"145 to 146 °C"
>>> reading("O=C1C=CC(O)(CCN2C(=O)C3CCCCC3C2=O)C=C1 (stereo not shown) [Compound 13h]")
"135 to 136 °C"
>>> reading("O=C1C=CC(O)(CCN2C(=O)C3CCCCC3C2O)C=C1 (stereo not shown)")
"127 to 128 °C"
>>> reading("O=C1C=CC(O)(CCN2C(=O)C(Cl)=C(Cl)C2=O)C=C1 [Compound 13e]")
"168 to 169 °C"
>>> reading("O=C1C=CC(O)(CCN2C(=O)c3cccnc3C2=O)C=C1 [Compound 13f]")
"167 to 168 °C"
>>> reading("O=C1C=CC(O)(CCN2C(=O)COCC2=O)C=C1 [Compound 13g]")
"142 to 143 °C"
>>> reading("O=C1C=CC(O)(CCN2CCOCC2)C=C1 [Compound 14c]")
"98 to 99 °C"
>>> reading("O=C1C=CC(O)(CCN2C(=O)c3ccccc3C2=O)C=C1 [Compound 13a]")
"161 to 162 °C"
>>> reading("O=C1C=CC(O)(CCN2C(=O)c3cc(Cl)c(Cl)cc3C2=O)C=C1 [Compound 13d]")
"213 to 214 °C"

Ref: paper PMC6278284
